ASSAY_TARGET: T1, human Trop-2 (on the surface of human cell lines) (human, UniProt P09758 27-323)
T1 sequence: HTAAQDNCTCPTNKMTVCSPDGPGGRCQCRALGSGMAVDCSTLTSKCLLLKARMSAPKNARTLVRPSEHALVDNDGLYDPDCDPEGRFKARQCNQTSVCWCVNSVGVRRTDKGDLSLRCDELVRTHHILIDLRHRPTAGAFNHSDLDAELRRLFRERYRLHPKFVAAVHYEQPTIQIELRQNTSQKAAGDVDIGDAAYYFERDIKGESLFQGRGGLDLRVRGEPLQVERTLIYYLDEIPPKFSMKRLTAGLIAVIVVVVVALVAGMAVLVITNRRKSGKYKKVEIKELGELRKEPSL
METHOD_DESCRIPTION: cell-based or functional assay
ENDPOINT_LABEL: ADCC, PBMC killing (LDH), H322, EC50

* hz-Ab35-2.1 (antibody, human IgG1, kappa, V domains shown, Humanized antibody) VH: QVQLVQSGAEVKKPGASVKVSCKASGYTFTSSDINWVRQRPGQGLEWMGWIYPRDGSKKYAQKFQGRVTMTVDTSTSTVYMELSSLRSEDTAVYYCATRFATVVSNYGLDPWGQGTLVTVSS VL: EIVLTQSPATLSLSPGERATLSCSASSSVNYIYWYQRKPGQAPRLLIYDTSNLASGIPARFSGSGSGTDYTLTISSLEPEDFAVYYCQQWNSYPLTFGQGTKVEIKR | 0.02 nM
* hz-Ab35-2.2 (antibody, human IgG1, kappa, V domains shown, Humanized antibody) VH: QVQLVQSGAEVKKPGASVKVSCKASGYTFTSSDINWVRQRPGQGLEWMGWIYPRDGSKKYNEKFKGRVTMTVDTSTSTVYMELSSLRSEDTAVYYCARRFATVVSNYGLDPWGQGTLVTVSS VL: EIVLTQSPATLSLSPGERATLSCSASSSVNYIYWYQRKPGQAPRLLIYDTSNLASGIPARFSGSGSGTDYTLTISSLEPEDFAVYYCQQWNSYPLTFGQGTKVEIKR | 0.01 nM
* hz-Ab2-1.3 (antibody, human IgG1, kappa, V domains shown, Humanized antibody) VH: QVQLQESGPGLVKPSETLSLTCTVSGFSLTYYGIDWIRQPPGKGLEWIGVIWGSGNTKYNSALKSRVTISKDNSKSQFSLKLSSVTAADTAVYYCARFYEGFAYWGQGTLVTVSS VL: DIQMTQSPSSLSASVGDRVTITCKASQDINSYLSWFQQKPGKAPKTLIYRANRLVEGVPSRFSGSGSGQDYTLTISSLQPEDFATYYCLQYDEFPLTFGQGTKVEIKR | 0.02 nM
* hz-Ab2-1.1 (antibody, human IgG1, kappa, V domains shown, Humanized antibody) VH: EVQLVESGGGLIQPGGSLRLSCAVSGFSLTYYGIDWVRQPPGKGLEWVSVIWGSGNTKYNSALKSRLTISRDNSKSTLYLQMNSLRAEDTAVYYCARFYEGFAYWGQGTLVTVSS VL: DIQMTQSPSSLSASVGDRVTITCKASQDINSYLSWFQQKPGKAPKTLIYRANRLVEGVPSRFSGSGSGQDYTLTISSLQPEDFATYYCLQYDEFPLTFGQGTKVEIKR | 0.13 nM
* ch-Ab2 (antibody, human IgG1, kappa, V domains shown, also called chimeric antibody of Ab2) VH: EVQLVESGPGLVAPSQSLSITCTVSGFSLTYYGIDWVRQPPGKGLEWLGVIWGSGNTKYNSALMSRLSISKDNSKSQVFLRMNSLQSDDTAIYYCARFYEGFAYWGQGTLVTVSA VL: AIVLTQSPSSMYASLGERVTITCKASQDINSYLSWFQQKPGKSPKTLIYRANRLVDGVPSRFSGSGSGQDYSLTISSLEYEDMGIYYCLQYDEFPLTFGVGTKLELKR | 0.01 nM
* hz-Ab21-2.1 (antibody, human IgG1, kappa, V domains shown, Humanized antibody) VH: EVQLVESGGGLVKPGGSLRLSCAASGFTLRNYGVHWVRQAPGKGLEWVGVIWSSGTTDYAAPVKGRFTISKDNSKNTLYLQMNSLKTEDTAVYYCTRDGDYDYYTMDYWGQGTLVTVSS VL: EIVLTQSPATLSLSPGERATLSCRASKSVSTSAYSYIHWYQQKPGQPPRLLIYLTSNLESGIPARFSGSGSGTDFTLTISSLEPEDFAVYYCQHSRELPYTFGQGTKVEIKR | 0.02 nM
* hz-Ab2-1.4 (antibody, human IgG1, kappa, V domains shown, Humanized antibody) VH: QVQLQESGPGLVKPSETLSLTCTVSGFSLTYYGIDWIRQPPGKGLEWIGVIWGSGNTKYNSALKSRVTISKDNSKSQVYLKLSSVTAADTAVYYCARFYEGFAYWGQGTLVTVSS VL: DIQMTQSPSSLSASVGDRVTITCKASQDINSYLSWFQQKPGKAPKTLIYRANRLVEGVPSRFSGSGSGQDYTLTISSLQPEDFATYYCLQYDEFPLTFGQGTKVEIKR | 0.01 nM
* hz-Ab2-2.4 (antibody, human IgG1, kappa, V domains shown, Humanized antibody) VH: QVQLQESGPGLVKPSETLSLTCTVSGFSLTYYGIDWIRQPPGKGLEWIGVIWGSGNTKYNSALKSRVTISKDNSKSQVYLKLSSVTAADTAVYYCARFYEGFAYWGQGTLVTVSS VL: DIQMTQSPSSLSASVGDRVTITCRASQDINSYLSWFQQKPGKAPKTLIYRANRLVEGVPSRFSGSGSGQDFTLTISSLQPEDFATYYCLQYDEYPLTFGQGTKVEIKR | 0.07 nM

The measurements presented in this section are drawn from patent US20250034275A1.
